Hello, the source for this data is ChEMBL document CHEMBL4513216, in case you need it.

# Tested on: Plasmodium berghei
# protocol_notes: Screen against P. berghei liver stage (PbLuc), transformed with Luciferase, at 10uM
# Format: functional, HepG2
# measurement_setup: tested at 10 uM
The whole screen tested about 69,000 compounds, of which about 8,600 (12%) showed an effect of 50% or more. This is one part of a sample in which strong results are shown more often than they occur.
The threshold is 30%. Values of INHIBITION beneath it are tagged true (1); values meeting or exceeding it are tagged false (0).

Worked cases, answers included:
CC(=O)CN1CC2(CCNCC2)COc2ccccc2S1(=O)=O    true (1)
O=C(Cn1cc(-c2ccccc2)cn1)NC(C1CC1)C1CC1    false (0)

Please let me know if COCC1COCCC12CCN(Cc1nccs1)CC2 (stereo unspecified) shows INHIBITION below 30%. true (1)

Please let me know if CCc1nc(C)c(CNC(=O)CCCN2CCCCC2)s1 shows INHIBITION below 30%. true (1)

Please let me know if Cc1n[nH]c(C)c1CCC(=O)N1CCc2c(nc[nH]c2=O)C1 shows INHIBITION below 30%. true (1)

Please let me know if CCN1CCC(CC(=O)NCc2nc(C)cc(C)n2)CC1 shows INHIBITION below 30%. false (0)

Please let me know if O=C(NCCN1CCOCC1)c1nc(-c2ccc3[nH]ccc3c2)no1 shows INHIBITION below 30%. true (1)

Please let me know if CN(C)c1nc(CNC(=O)N[C@H](CO)c2ccccc2)cs1 shows INHIBITION below 30%. true (1)

Please let me know if O=C(C1CCN(Cc2nc(-c3ccco3)no2)CC1)N1CCCC1 shows INHIBITION below 30%. true (1)

Please let me know if CC(NC(=O)CCOc1ccc(F)cc1)c1nnc2n1CCCCC2 (stereo unspecified) shows INHIBITION below 30%. true (1)

Please let me know if Cc1ccc(CN2CC[C@@H]3[C@@H](CO[C@H]3CN3CCN(C)CC3)C2)s1 shows INHIBITION below 30%. true (1)
